assay system: BIKE (Homo sapiens, UniProt Q9NSY1, K320A/K321A)
Construct: BIKE38–345 (kinase domain)
Sequence (Q9NSY1 38-345 K320A/K321A): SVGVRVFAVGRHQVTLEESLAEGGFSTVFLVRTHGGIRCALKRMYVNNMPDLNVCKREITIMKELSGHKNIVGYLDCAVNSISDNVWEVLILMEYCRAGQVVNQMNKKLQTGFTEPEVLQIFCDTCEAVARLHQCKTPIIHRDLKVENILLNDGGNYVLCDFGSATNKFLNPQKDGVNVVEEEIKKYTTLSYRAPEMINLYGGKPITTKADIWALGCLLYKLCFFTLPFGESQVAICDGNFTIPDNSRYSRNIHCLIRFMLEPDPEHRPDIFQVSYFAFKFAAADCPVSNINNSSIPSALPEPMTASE
experimental protocol: co-crystal structure ([…] Å); ITC; thermal shift
property name: Kd (nM)

compound="NC(=O)Nc1cc(-c2cccc(F)c2)sc1C(=O)N[C@H]1CCCNC1 [AZD7762]" property_name=Kd observed_result=33.1

====

assay system: GAK (Homo sapiens, UniProt O14976)
Construct: catalytic domain-containing construct
Sequence (O14976 whole entry, the tested form may be a part): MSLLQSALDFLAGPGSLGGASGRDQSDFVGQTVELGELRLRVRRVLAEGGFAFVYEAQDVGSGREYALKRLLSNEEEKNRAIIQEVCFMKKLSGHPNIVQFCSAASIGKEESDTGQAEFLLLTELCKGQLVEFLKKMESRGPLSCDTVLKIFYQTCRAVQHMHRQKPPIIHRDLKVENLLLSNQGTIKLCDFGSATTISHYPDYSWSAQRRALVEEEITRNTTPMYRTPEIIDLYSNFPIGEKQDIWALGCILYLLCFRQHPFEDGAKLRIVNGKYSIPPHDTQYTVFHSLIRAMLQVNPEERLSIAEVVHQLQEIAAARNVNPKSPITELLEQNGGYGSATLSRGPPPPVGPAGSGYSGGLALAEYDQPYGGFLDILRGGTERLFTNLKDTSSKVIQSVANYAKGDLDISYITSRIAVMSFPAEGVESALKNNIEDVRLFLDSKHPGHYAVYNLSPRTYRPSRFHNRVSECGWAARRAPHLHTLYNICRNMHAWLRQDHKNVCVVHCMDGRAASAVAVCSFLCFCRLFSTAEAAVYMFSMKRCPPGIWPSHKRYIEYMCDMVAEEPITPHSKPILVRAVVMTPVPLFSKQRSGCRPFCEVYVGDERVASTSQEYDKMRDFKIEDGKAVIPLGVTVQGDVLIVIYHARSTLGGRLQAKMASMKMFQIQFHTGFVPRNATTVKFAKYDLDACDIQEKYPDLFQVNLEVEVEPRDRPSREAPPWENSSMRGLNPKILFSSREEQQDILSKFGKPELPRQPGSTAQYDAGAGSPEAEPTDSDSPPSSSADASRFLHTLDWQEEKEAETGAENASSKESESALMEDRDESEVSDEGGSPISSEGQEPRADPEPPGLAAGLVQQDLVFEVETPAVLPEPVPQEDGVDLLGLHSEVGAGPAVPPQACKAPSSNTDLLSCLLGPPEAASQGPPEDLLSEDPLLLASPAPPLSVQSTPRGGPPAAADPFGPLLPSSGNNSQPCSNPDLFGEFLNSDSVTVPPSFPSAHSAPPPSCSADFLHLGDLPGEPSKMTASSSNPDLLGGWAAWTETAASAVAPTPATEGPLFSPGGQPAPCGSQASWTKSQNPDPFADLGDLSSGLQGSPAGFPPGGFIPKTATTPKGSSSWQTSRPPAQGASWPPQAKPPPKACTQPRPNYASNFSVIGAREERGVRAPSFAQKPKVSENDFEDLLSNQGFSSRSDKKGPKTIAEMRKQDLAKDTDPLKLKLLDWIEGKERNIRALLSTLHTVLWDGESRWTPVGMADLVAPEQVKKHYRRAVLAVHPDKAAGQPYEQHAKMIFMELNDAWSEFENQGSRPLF
experimental protocol: biochemical
Set-up: Thermal shift assay (DSF, SYPRO Orange), 2 uM kinase domain, mean delta Tm of triplicates versus DMSO
protocol conditions: read-out: GAK
property name: ΔTm at 12.5 µM (°C)

item_smiles=COc1cc(OC)c(/C=C/S(=O)(=O)Cc2ccc(OC)c(NCC(=O)O)c2)c(OC)c1 property_name="ΔTm at 12.5 µM" observed_result=-0.48
item_smiles=Cc1ccc(-n2nc(C(C)(C)C)cc2NC(=O)Nc2ccc(OCCN3CCOCC3)c3ccccc23)cc1 property_name="ΔTm at 12.5 µM" observed_result=-0.607
item_smiles=CC(=O)c1c(C)c2cnc(Nc3ccc(N4CCNCC4)cn3)nc2n(C2CCCC2)c1=O property_name="ΔTm at 12.5 µM" observed_result=0.733
item_smiles=COc1ccc(-c2cc3c(C)nc(N)nc3n([C@H]3CC[C@H](OCCO)CC3)c2=O)cn1 property_name="ΔTm at 12.5 µM" observed_result=-0.593

Just for reference, paper PMC4780864 is where these values come from.
